Data credit: ChEMBL document CHEMBL3286113

- Assay: Tmax in fasted human at 900 mg, po administered as single dose
- Type: ADME, organism-based
- Condition: in vivo
Observation type: Tmax (h)
Number in h, nothing else.

Name the reported Tmax value associated with the compound `O=C1C=CN(c2c(F)cc(N3C[C@H](CNc4ccon4)OC3=O)c(F)c2F)CC1`
1.4

====

- Assay: AUC (0 to t) in female rat at 5 mg/kg, iv
- Type: ADME, organism-based
- Set-up: dose 5 mg/kg, route intravenous
- Condition: plasma
Observation type: AUC(0-t) (ng·h/mL)
State the answer as a number, implicitly in ng·h/mL.

Which AUC(0-t) reading was recorded for the compound `O=C1C=CN(c2c(F)cc(N3C[C@H](CNc4ccon4)OC3=O)c(F)c2F)CC1` ?
25200

====

- Assay: AUC (0 to t) in male rat at 5 mg/kg, iv
- Format: ADME, organism-based
- Design: dose 5 mg/kg, route intravenous
- Condition: plasma
Observation type: AUC(0-t)

Endpoint output: AUC(0-t) of `O=C1C=CN(c2c(F)cc(N3C[C@H](CNc4ccon4)OC3=O)c(F)c2F)CC1` . Value?
12900 ng·h/mL

====

- Assay: Tmax in human at 600 mg, po administered as single dose with meal measured on day 15
- Type: ADME, organism-based
- Condition: in vivo
Observation type: Tmax (min)
Write down the numeric answer in min and omit the unit.

Would you kindly share the measured Tmax for O=C1C=CN(c2c(F)cc(N3C[C@H](CNc4ccon4)OC3=O)c(F)c2F)CC1 [CONTEZOLID] ?
36

====

- Assay: Tmax in po dosed dog
- Assay type: ADME, organism-based, Canis lupus familiaris
- Condition: in vivo
Observation type: Tmax

Using the record for `O=C1C=CN(c2c(F)cc(N3C[C@H](CNc4ccon4)OC3=O)c(F)c2F)CC1` , report its Tmax.
30 min

====

- Assay: Tmax in male rat at 45 mg/kg, po
- Type: ADME, organism-based
- Parameters: dose 45 mg/kg, route oral
- Condition: in vivo
Observation type: Tmax (h)
Supply the numeric figure in h, leaving out any unit text.

Given O=C1C=CN(c2c(F)cc(N3C[C@H](CNc4ccon4)OC3=O)c(F)c2F)CC1 [CONTEZOLID] , state its recorded Tmax.
1

====

- Assay: Cmax in male rat at 45 mg/kg, po
- Type: ADME, organism-based
- Design: dose 45 mg/kg, route oral
- Condition: in vivo
Observation type: Cmax (ng/mL)
// note: answer is a bare numeric in ng/mL

Dear colleague, I am looking for the recorded Cmax of the following compound: O=C1C=CN(c2c(F)cc(N3C[C@H](CNc4ccon4)OC3=O)c(F)c2F)CC1 [CONTEZOLID]
27800

====

- Assay: Oral bioavailability in mouse
- Assay type: ADME, organism-based
- Condition: in vivo
Observation type: bioavailability (%)
Output spec: scalar in %, unitless text.

I have this molecule here, `O=C1C=CN(c2c(F)cc(N3C[C@H](CNc4ccon4)OC3=O)c(F)c2F)CC1` , and I need its recorded bioavailability.
69

====

- Assay: Tmax in po dosed rat
- Type: ADME, organism-based
- Condition: in vivo
Observation type: Tmax (min)
Quick note: give the figure in min, leave out the unit.

Given the entry O=C1C=CN(c2c(F)cc(N3C[C@H](CNc4ccon4)OC3=O)c(F)c2F)CC1 [CONTEZOLID] , report its measured Tmax.
30
